Data origin: patent US20240376221A1

System: recombinant human OX40 (Acro Biosystems, cat. no. OXO-H5224) (human) (UniProt P43489)
Sequence (P43489 29-216 limits assumed): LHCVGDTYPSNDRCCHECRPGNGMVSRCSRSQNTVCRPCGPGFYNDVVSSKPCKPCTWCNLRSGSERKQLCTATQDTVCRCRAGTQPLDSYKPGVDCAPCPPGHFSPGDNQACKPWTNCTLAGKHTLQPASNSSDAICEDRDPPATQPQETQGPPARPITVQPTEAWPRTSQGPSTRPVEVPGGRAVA
Test: BLI cross-block; competitor (immobilized 1st Ab): IgG1-CD134-INCAGN1949
Measurement type: corrected association response

| Binder | Measurement type | Result |
| --- | --- | --- |
| IgG1-CD134-GBR830 (antibody, INN chains, looked up, V domains shown, IgG1) VH: QVTLKESGPALVKPTQTLTLTCSFSGFSLSTSGMGVGWIRQPPGKALEWIAHIWWDDDKYYNTALKTRLTISKDTSKNQVVLTMTNMDPVDTATYYCARIDWDGFAYWGQGTLVTVSS VL: EIVLTQSPATLSLSPGERATLSCRASSSVSYMHWYQQKPGQAPRPWIYATSNRATGIPARFSGSGSGTDYTLTISSLEPEDFAVYYCQQWSSNPWTFGQGTKVEIK | corrected association response | 0.01 nm |
